- assay.overview: protein stability index of a GFP-peptide fusion (GPS, HEK-293T) (PSI 1-6); higher = more stable;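 note: 24-mer peptide tiles fused after GFP, lentivirally expressed, FACS-sorted into six equal bins by GFP/DsRed ratio, decoded by Illumina sequencing, PSI is the read-weighted mean bin number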
- cond: treatment: MLN4924 1 uM, 8 h; c terminus: a fixed tail appended
readout: protein stability index

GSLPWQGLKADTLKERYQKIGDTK [CSNK1G1]; 4.19
LKASEPGLFAVGEHTGEVRTARAL [PCDHGA10]; 4.21
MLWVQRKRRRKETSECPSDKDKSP [C10orf62]; 3.66
KPPETSVPVVTPTASTAPPVPATA [SNAP91]; 5.37
NSEEEEDDDDEEEEVSEVESFILD [ANKRD17]; 4.94
METSPSEEDSFYRSSYPQQQGLGA [TBX5]; 4.47
DSDEATAARLLFNMAGVTFRKFIP [DCTD]; 2.58
DGKSLVSVTKEGLELPEDEEEKKK [HSP90AB1]; 5.44
VMSIPDVIRLKQEQHVHNEKSVLK [PRKX]; 4.25
QAQQKKAPAKKANSTTTAGRDHFL [BRD3]; 4.62
HENETLASLKSEAESLKGKLEEER [GNB5]; 5.34
EAGNEFKNIFGTPEFVAPEIVNYE [DAPK3]; 4.66
